- molecule: "COc1ccc(C2=NN(C(C)=O)C(c3ccc(Cl)cc3)C2)cc1S(N)(=O)=O (centres unmarked)"
  melting point: "229 to 232 °C"
- molecule: "COc1ccc(C(=O)/C=C/c2ccc3c(c2)OCO3)cc1S(=O)(=O)Nc1cccnc1 [Compound 16f]"
  melting point: "220 to 223 °C"
- molecule: "COc1cc(OC)c(S(=O)(=O)NNC(=O)c2ccncc2)cc1C(=O)/C=C/c1ccc(C)cc1 [Compound 20c]"
  melting point: "195 to 197 °C"
- molecule: "COc1ccc(C(=O)/C=C/c2cc(OC)c(OC)c(OC)c2)cc1S(=O)(=O)Nc1cccnc1 [Compound 16e]"
  melting point: "239 to 241 °C"
- molecule: "COc1cc(OC)c(S(=O)(=O)N(CCCl)CCCl)cc1C(=O)/C=C/c1ccc(C)cc1 [Compound 18c]"
  melting point: "186 to 189 °C"
- molecule: "COc1cc(OC)c(S(=O)(=O)NNC(=O)c2ccncc2)cc1C1=NN(C=O)C(c2ccc(Cl)cc2)C1 (centres unmarked)"
  melting point: "166 to 168 °C"
- molecule: "COc1ccc(/C=C/C(=O)c2ccc(OC)c(S(=O)(=O)NNC(=O)c3ccncc3)c2)cc1 [Compound 19d]"
  melting point: "216 to 217 °C"
- molecule: "COc1ccc(C2=NN(C=O)C(c3ccc(Cl)cc3)C2)cc1S(=O)(=O)Nc1cccnc1 (centres unmarked)"
  melting point: "241 to 243 °C"

* * *

Known IC50 of a selection of compounds
system: SR; assay: NCI-60 screen (SRB), leukemia; conditions: Homo sapiens
quantity_kind: IC50

- compound: "COc1cc(OC)c(S(N)(=O)=O)cc1C(=O)C=Cc1ccccc1 [Compound 17a]"
  quantity_kind: "IC50"
  result: "1730 nM"
- compound: "COc1cc(OC)c(S(N)(=O)=O)cc1C(=O)/C=C/c1ccc(Cl)cc1 [Compound 17b]"
  quantity_kind: "IC50"
  result: "2110 nM"
- compound: "COc1cc(OC)c(S(=O)(=O)N(CCCl)CCCl)cc1C(=O)/C=C/c1cc(OC)c(OC)c(OC)c1 [Compound 18e]"
  quantity_kind: "IC50"
  result: "990 nM"
- compound: "COc1cc(OC)c(S(N)(=O)=O)cc1C(=O)/C=C/c1ccc(C)cc1 [Compound 17c]"
  quantity_kind: "IC50"
  result: "2260 nM"

* * *

system: 786-0; experiment: NCI-60 screen (SRB), renal cancer; conditions: Homo sapiens, 786-0, read-out: LC50

- compound: "COc1cc(OC)c(S(N)(=O)=O)cc1C(=O)/C=C/c1ccc(C)cc1 [Compound 17c]"
  readout_relation: ">"
  CC50, µM: 100
- compound: "COc1cc(OC)c(S(N)(=O)=O)cc1C(=O)/C=C/c1ccc(Cl)cc1 [Compound 17b]"
  readout_relation: "="
  CC50, µM: 9.83
- compound: "COc1cc(OC)c(S(N)(=O)=O)cc1C(=O)C=Cc1ccccc1 [Compound 17a]"
  readout_relation: "="
  CC50, µM: 63.2
- compound: "COc1cc(OC)c(S(=O)(=O)N(CCCl)CCCl)cc1C(=O)/C=C/c1cc(OC)c(OC)c(OC)c1 [Compound 18e]"
  readout_relation: ">"
  CC50, µM: 100
